# Test system: RAW-Dual
# Assay Text: NF-kB SEAP reporter activity, fold change vs agonist alone; higher = enhanced NF-kB activity
# Applied Conditions: library stock concentration (final ~1000-fold dilution): 1 mM; cytotoxicity flag (confluency mask): not cytotoxic; agonist: MPLA (TLR4) […]
In all, about 2,900 compounds were measured (“NF-kB SEAP reporter activity, fold change vs agonist alone”: median about 0.99, highest 2% from about 2.6 on). For the sample, the highest values were picked, then their nearest neighbours and some compounds at random.
Attribute Measured: NF-kB SEAP reporter activity
Please give the numeric answer without any surrounding text.

// worked examples, NF-kB SEAP reporter activity included
INSERT INTO assay_data (molecule, meas_value) VALUES
  ('C=C1CCC(O)CC1=CC=C1CCCC2(C)C1CCC2C(C)CCCC(C)C (centres undefined)', 0.651),
  ('CCCCOc1nc(N)c2c(n1)N(Cc1cccc(CN3CCCC3)c1)CC(=O)N2', 1.91),
  ('CCCN(CCC)C(=O)C1=Cc2ccc(-c3ccc(C(=O)N4CCCC4)cc3)cc2N=C(N)C1', 1.82);

Now take the following molecule into account.
Quick one: NF-kB SEAP reporter activity of CCCCCCOC(=O)c1cc(=O)c(O)c2c(O)c(O)c(OC)cc2c1 ?
1.23
